The reported numbers originate from ChEMBL document CHEMBL1143133.

Catalogue of Activity values
# targetEntity: UniProt:P14416
# Sequence (P14416 whole entry): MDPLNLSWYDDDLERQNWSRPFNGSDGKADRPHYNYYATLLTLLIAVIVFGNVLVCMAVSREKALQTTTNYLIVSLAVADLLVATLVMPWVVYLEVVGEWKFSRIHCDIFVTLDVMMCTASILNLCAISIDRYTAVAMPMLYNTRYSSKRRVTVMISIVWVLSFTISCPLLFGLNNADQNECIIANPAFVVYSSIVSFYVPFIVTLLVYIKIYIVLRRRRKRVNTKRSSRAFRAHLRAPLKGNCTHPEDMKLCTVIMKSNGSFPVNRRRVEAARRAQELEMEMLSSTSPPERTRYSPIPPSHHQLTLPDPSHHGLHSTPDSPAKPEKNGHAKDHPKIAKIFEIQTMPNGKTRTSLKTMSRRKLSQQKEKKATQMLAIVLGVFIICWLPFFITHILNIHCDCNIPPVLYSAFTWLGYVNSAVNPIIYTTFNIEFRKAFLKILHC
# measurementProtocol: Displacement of [3H][…] from human cloned dopamine D2 long receptor at 100 uM
// units = %; emit number, no label

Below are worked cases with known answers.
compoundstructure=Fc1ccc(N2CCN(Cc3ccccc3Br)CC2)cc1 targetentity=UniProt:P14416 parameter=Activity value=1
compoundstructure=COc1cccc(CN2CCN(c3ccccc3Cl)CC2)c1 targetentity=UniProt:P14416 parameter=Activity value=4

Report Activity, nothing else, for this compound: Cc1ccc(N2CCN(Cc3ccccc3Br)CC2)cc1 6

Report Activity, nothing else, for this compound: COc1cccc(CN2CCN(c3ccc(C)cc3)CC2)c1 6

Report Activity, nothing else, for this compound: COc1cccc(CN2CCN(c3cccc(OC)c3)CC2)c1 -0

Report Activity, nothing else, for this compound: N#Cc1ccc(CN2CCN(c3ccc(F)cc3)CC2)cc1 -0

Report Activity, nothing else, for this compound: COc1cccc(CN2CCN(c3ccc(F)cc3)CC2)c1 2

Report Activity, nothing else, for this compound: Clc1ccc(N2CCN(Cc3ccccc3Br)CC2)cc1Cl 10
